Recorded values, source patent US10399986B2.

target: LTA4-h hydrolase (Homo sapiens, UniProt P09960); construct: whole blood assay using human, mouse, rat or dog whole blood; test: whole blood assay (WBA)
Sequence (P09960 whole entry): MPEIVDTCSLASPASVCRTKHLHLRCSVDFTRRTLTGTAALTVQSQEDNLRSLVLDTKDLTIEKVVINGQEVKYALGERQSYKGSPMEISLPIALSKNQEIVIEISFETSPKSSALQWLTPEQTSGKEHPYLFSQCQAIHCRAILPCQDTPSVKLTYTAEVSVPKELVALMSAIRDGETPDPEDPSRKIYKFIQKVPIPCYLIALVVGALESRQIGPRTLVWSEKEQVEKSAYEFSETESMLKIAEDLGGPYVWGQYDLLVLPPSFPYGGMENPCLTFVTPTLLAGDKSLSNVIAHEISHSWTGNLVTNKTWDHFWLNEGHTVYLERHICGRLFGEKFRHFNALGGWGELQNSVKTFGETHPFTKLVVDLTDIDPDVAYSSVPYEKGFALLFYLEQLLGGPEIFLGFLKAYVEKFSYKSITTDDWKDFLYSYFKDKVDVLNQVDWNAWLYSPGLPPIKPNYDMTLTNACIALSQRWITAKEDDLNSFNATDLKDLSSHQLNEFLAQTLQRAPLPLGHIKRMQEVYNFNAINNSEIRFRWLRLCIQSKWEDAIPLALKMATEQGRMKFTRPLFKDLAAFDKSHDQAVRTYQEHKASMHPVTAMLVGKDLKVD
pIC50: −log10 of the molar value.
readout: pIC50

compound="N#Cc1c(Nc2ccc(Oc3ccccc3)cc2)nn2cc(N)cnc12 [Compound 1]" measured="< 5.06"
compound="CS(=O)(=O)c1ccc(-c2cnc3c(C#N)c(Nc4ccc(Oc5ccccc5)cc4)nn3c2)c([N+](=O)[O-])c1 [Compound 2]" measured="< 5.14"

Data request: Requested field: pIC50. Item: N#Cc1c(Nc2ccc(Oc3ccccc3)cc2)nn2cc(-c3cc(C(=O)O)ccc3[N+](=O)[O-])cnc12 [Compound 3]
Data returned: < 5.00
